- assay_system: Orexin receptor type 2 (Homo sapiens, UniProt O43614)
- Sequence (O43614 whole entry): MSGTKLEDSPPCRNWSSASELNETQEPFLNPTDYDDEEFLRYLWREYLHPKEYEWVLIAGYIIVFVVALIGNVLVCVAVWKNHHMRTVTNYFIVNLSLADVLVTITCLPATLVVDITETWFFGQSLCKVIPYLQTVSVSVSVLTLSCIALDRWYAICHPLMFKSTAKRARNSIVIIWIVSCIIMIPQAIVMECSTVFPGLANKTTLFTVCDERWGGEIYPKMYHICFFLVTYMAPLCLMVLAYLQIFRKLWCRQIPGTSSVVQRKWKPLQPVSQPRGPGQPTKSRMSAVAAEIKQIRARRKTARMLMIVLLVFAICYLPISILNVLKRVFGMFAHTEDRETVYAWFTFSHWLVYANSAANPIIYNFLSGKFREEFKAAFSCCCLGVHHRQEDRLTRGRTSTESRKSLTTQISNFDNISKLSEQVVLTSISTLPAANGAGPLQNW
- measurement_notes: Antagonist activity against human orexin 2 receptor expressed in CHO cells assessed as effect in calcium mobilization by FLIPR assay
pKi: −log10 of the molar value.
measure: pKi

(a) Cc1occc1-c1nnc(SCC(=O)Nc2cccc(Cl)c2)n1Cc1ccco1
(b) Cc1csc(NC(=O)CSc2nnc(-c3ccoc3C)n2Cc2ccco2)n1
(c) Cc1occc1-c1nnc(SCC(=O)Nc2ccc(N(C)C)cc2)n1Cc1ccco1
Query: Consider the compounds listed above. Rank them by pKi in ascending numerical order. The labels, placed in the requested order, form the answer.
Reply: c, b, a

====

Here the recorded Ki is given for each entry.
- assay_system: Orexin/Hypocretin receptor type 1 (Homo sapiens)
- Sequence (O43613 whole entry): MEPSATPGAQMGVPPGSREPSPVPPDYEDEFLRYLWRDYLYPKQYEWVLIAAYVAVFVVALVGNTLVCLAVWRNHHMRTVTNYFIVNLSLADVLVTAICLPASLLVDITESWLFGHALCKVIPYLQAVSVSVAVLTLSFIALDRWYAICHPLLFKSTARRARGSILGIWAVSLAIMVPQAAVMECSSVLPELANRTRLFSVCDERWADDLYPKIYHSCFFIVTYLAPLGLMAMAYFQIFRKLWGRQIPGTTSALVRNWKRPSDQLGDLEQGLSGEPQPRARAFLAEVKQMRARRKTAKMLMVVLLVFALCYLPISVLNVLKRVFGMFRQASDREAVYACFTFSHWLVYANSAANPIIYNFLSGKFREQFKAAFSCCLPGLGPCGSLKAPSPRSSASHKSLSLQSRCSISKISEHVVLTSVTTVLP
- measurement_notes: Antagonist activity against human orexin 1 receptor expressed in CHO cells assessed as effect in calcium mobilization by FLIPR assay

- compound: "Cc1occc1-c1nnc(SCC(=O)Nc2ccccc2)n1Cc1ccco1"
  Ki: "> 15.8 µM"
- compound: "Cc1cc(C)cc(N(C(=O)CSc2nnc(-c3ccoc3C)n2Cc2ccco2)C2CNCCN2)c1 (stereo not given)"
  Ki: "> 15.8 µM"
- compound: "Cc1cc(C)cc(N(C(=O)CSc2nnc(-c3ccoc3C)n2Cc2ccco2)c2cccnc2)c1"
  Ki: "> 15.8 µM"
- compound: "COc1ccccc1NC(=O)CSc1nnc(-c2ccoc2C)n1Cc1ccco1"
  Ki: "> 15.8 µM"
- compound: "Cc1cccc(NC(=O)CSc2nnc(-c3ccoc3C)n2Cc2ccco2)c1C"
  Ki: "> 15.8 µM"
- compound: "Cc1ccc(NC(=O)CSc2nnc(-c3ccoc3C)n2Cc2ccco2)c(C)c1"
  Ki: "1.26 µM"
- compound: "Cc1occc1-c1nnc(SCC(=O)Nc2ccc(Cl)cc2)n1Cc1ccco1"
  Ki: "2 µM"
- compound: "Cc1cccc(C)c1NC(=O)CSc1nnc(-c2ccoc2C)n1Cc1ccco1"
  Ki: "> 15.8 µM"
- compound: "Cc1ccccc1NC(=O)CSc1nnc(-c2ccoc2C)n1Cc1ccco1"
  Ki: "> 15.8 µM"

Query: Which measured Ki value corresponds to CCC(C)NC(=O)CSc1nnc(-c2ccoc2C)n1Cc1ccco1 (stereo not given) ?
Reply: > 15.8 µM

Data provenance is ChEMBL document CHEMBL1268981.
